Source listed as patent US20240270821A1.

Below, each entry is listed with its recorded log10 of cAMP Rel EC50 (1% HSA).
- Measured on: hGLP-1R (Homo sapiens, UniProt P43220)
- Sequence (P43220 24-463): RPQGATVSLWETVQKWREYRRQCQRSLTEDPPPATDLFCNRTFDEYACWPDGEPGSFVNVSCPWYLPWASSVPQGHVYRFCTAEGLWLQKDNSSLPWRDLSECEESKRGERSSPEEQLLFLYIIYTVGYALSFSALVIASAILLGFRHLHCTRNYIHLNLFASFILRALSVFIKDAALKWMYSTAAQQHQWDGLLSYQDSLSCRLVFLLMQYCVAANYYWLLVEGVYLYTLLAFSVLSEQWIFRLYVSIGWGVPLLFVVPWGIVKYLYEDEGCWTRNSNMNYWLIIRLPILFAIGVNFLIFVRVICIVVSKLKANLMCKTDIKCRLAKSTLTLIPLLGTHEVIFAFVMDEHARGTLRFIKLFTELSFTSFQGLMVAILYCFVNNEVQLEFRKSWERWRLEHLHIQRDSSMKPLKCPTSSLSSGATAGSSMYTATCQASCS
- Run description: cell-based or functional assay
Starred links: 1 amine or outer side, 2 acyl side, 3 side chain; linkers in the order of their positions; H or OH if unused. Non-standard residues stand in square brackets, D forms with d. Groups on a side chain read outwards from the residue. No end group written: not given here. *: point of attachment. C20 diacid = O=C(O)CCCCCCCCCCCCCCCCCCC(=O)*; αMePhe(2-F) = C[C@](N)(Cc1ccccc1F)C(=O)O; γGlu = O=C(O)[C@H](CCC(=O)[*:2])N[*:1]; αMeL = CC(C)C[C@](C)(N)C(=O)O; Orn = NCCC[C@H](N)C(=O)O; AEEA = NCCOCCOCC(=O)O; Aib = CC(C)(N)C(=O)O
Note: values are log10 of cAMP Rel EC50 (1% HSA) expressed in nM.

Answered examples (5):
Binder	Assay readout	Observed
YXQGTXTSDXXIXLDXKAAXEFIEXLIEGGPSSGEPPPSGSE (synthetic construct; SITE 2: note = 2-Aminoisobutyric Acid; SITE 6: note = alpha-methyl-2-fluoro-L-phenylalanine; SITE 10: note = 3-(4-Pyridyl)-L-alanine; SITE 11: note = alpha-methyl-L-serine; SITE 13: note = alpha-methyl-leucine; SITE 16: note = L-ornithine; SITE 17: note = Lysine is chemically mo) [Example 720]	log10 of cAMP Rel EC50 (1% HSA)	1.45
YXQGTFTSDXSQXLDXKAQXQFIEXLIEXGPSSGEPPPSGSEE (not fully specified; non-natural residues; Lys acylated C18 diacid via γGlu; C-term amide; synthetic construct; SITE 2: note = 2-Aminoisobutyric Acid; SITE 10: note = 3-(4-Pyridyl)-L-alanine; SITE 13: note = alpha-methyl-leucine; SITE 16: note = L-ornithine; SITE 17: note = Lysine is chemically modified through conjugation of the epsilon-amino group of the Lysine side chain with D-Glutami) [Example 1104]	log10 of cAMP Rel EC50 (1% HSA)	2.43
Y[Aib]QGTFTSDYSI[αMeL]LDKIAAK([AEEA-AEEA-γGlu-C20 diacid])QFVQWLIE[Aib]GPSSGEPPPSEG-NH2 [Example 323]	log10 of cAMP Rel EC50 (1% HSA)	2.47
YXQGTXTSDXSIXLDKKAQXXFIEYLAEGGPSSGEPPPEGSEE (synthetic construct; SITE 2: note = 2-Aminoisobutyric Acid; SITE 6: note = alpha-methyl-2-fluoro-L-phenylalanine; SITE 10: note = 3-(4-Pyridyl)-L-alanine; SITE 13: note = alpha-methyl-leucine; SITE 17: note = Lysine is chemically modified through conjugation of the epsilon-amino group of the Lysine) [Example 650]	log10 of cAMP Rel EC50 (1% HSA)	1.50
Y[Aib]QGT[αMePhe(2-F)]TSDYSKLLDKIAQK([AEEA-γGlu-C20 diacid])[Orn]FIEWLIEGGPSSGEPPPSEG-NH2 [Example 310]	log10 of cAMP Rel EC50 (1% HSA)	2.25

Look at this binder and give its reported log10 of cAMP Rel EC50 (1% HSA). YXQGTFTSDXSQXLDKKAQXAFIEYLIEXGPSSGAPPPSEG (non-natural residues; lipidated Lys AEEA-γGlu-C18 diacid; synthetic construct; SITE 2: note = 2-Aminoisobutyric Acid; SITE 10: note = 3-(4-Pyridyl)-L-alanine; SITE 13: note = alpha-methyl-leucine; SITE 17: note = Lysine is chemically modified through conjugation of the epsilon-amino group of the Lysine side chain with (2-[2-(2-Amino-ethoxy)-ethoxy]-acetyl)) [Example 918]
2.68

Look at this binder and give its reported log10 of cAMP Rel EC50 (1% HSA). YXQGTXTSDXXIXLDXKAAXEFIEXLLEGGPSSGAPPPSGS (synthetic construct; SITE 2: note = 2-Aminoisobutyric Acid; SITE 6: note = alpha-methyl-2-fluoro-L-phenylalanine; SITE 10: note = 3-(4-Pyridyl)-L-alanine; SITE 11: note = alpha-methyl-L-serine; SITE 13: note = alpha-methyl-leucine; SITE 16: note = L-ornithine; SITE 17: note = Lysine is chemically mo) [Example 672]
1.69

Look at this binder and give its reported log10 of cAMP Rel EC50 (1% HSA). Y[Aib]QGT[αMePhe(2-F)]TSDYSILLDKQAAKAFIEYLIEGGPSSGEPPPSEG-NH2 (not fully specified (residue 20)) [Example 331]
2.32
